Assay: recombinant UMI read abundance after kanamycin selection (control-corrected) (log10(CPM+1)); higher = more efficient recombination; extreme values may be limits of the assay; sequences stand for … in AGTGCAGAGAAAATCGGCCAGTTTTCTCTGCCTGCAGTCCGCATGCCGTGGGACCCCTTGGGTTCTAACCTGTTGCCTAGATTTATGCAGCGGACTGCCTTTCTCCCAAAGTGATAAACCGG…AGGTTGGTTTCACT; site = the 11-nt donor;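 further: IS621 bridge recombinase in Escherichia coli cells against a fixed T5 target plasmid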
# binarize recombinant UMI read abundance (log10): threshold 0.004 inclusive, high side label 1, low side label 0

polymer_sequence="CGGTCAGCATGGACCGGTTTTCCCGGTAATCCGTATTTGCT (site CGGTCAGCTAG)" category="label 1"
polymer_sequence="CCCTAGCCATGGACCGGTTTTCCCGGTAATCCGTATTTGGC (site CCCTAGCCTGG)" category="label 0"
polymer_sequence="CGTTACACATGGACCGGTTTTCCCGGTAATCCGTATTTGAG (site CGTTACACTCT)" category="label 1"
polymer_sequence="GTATACACATGGACCGGTTTTCCCGGTAATCCGTATTTGTA (site GTATCCACTTA)" category="label 0"
polymer_sequence="CCCCTTACATGGACCGGTTTTCCCGGTAATCCGTATTTGGT (site CCCCTTACTAC)" category="label 1"
polymer_sequence="AACCGTCCATGGACCGGTTTTCCCGGTAATCCGTATTTGAT (site GACCGTCCTAT)" category="label 1"
polymer_sequence="AGGGAGTCATGGACCGGTTTTCCCGGTAATCCGTATTTGCA (site AGGAAGACTTG)" category="label 1"
polymer_sequence="CTTCTCTCATGGACCGGTTTTCCCGGTAATCCGTATTTGTG (site CTTCTCTCTGA)" category="label 0"
polymer_sequence="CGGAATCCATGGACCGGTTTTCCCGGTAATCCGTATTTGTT (site CGCAATCCTAA)" category="label 0"
